Answer each item with its documented melting point.
Where a name gives a salt, the structure may show the parent alone.

Please review the following examples before continuing.
>  <compound>
CC(=O)N1N=C(N2CCCCC2=O)SC1(CCNS(C)(=O)=O)c1ccccc1 (single isomer, unassigned; (-))

>  <melting point>
169 to 171 °C

$$$$
>  <compound>
CN(C)CCCS(=O)(=O)NCC1(c2ccccc2)SC(NC(=O)C(C)(C)C)=NN1C(=O)C(C)(C)C (single isomer, unassigned; (-))

>  <melting point>
92 to 95 °C

$$$$
>  <compound>
CC(=O)N1N=C(N2CCCC2=O)SC1(CCNS(C)(=O)=O)c1ccccc1 (stereo not drawn)

>  <melting point>
137 to 140 °C

$$$$

Below are 3 compounds. Give each one its melting point.
1. CC(=O)N1N=C(NC(=O)C(C)(C)C)SC1(CCNS(C)(=O)=O)c1ccccc1 (single isomer, unassigned; (-))
2. CN(C)CCS(=O)(=O)NCC1(c2ccccc2)SC(NC(=O)C(C)(C)C)=NN1C(=O)C(C)(C)C (single isomer, unassigned; (-))
3. CC(C)(C)C(=O)NC1=NN(C(=O)C(C)(C)C)C(CCNS(C)(=O)=O)(c2ccccc2)S1 (single isomer, unassigned; (-))

1: 187 to 190 °C; 2: 101 to 104 °C; 3: 204 to 206 °C

For each of the compounds below, state melting point.
1. CCC(=O)N1N=C(N2CCCC2=O)SC1(CCNS(C)(=O)=O)c1ccccc1 (single isomer, unassigned; (-))
2. CC(C)(C)C(=O)NC1=NN(C(=O)C(C)(C)C)C(CN)(c2ccccc2)S1 (stereo not drawn) (as salt: hydrochloride)
3. CC(C)(C)C(=O)N1N=C(N2CCCC2=O)SC1(CCNS(C)(=O)=O)c1ccccc1 (single isomer, unassigned; (-))

1: 188 to 191 °C; 2: 175 to 182 °C; 3: 107 to 110 °C
